test system: ACHN renal; test: NCI-60 one-dose screen, 48 h (100 = growth as untreated, 0 = no growth, -100 = all killed); settings: 10 µM unless noted
About 83,000 compounds went through this panel and 20% of them were active in at least one assay; those are over-represented in the sample as a whole.
PROPERTY_LABEL: growth (%)
Report only the number, with the unit % understood.

# input Lab request: please report growth under test system ACHN renal for COc1ccc(C2=NNC(c3cc(Cc4ccc(O)c(C5CC(c6ccc(OC)cc6)=NN5)c4)ccc3O)C2)cc1 (stereo not drawn)
# output 46.3

# input Find the measured growth: item `O=C1CC(C(F)(F)F)=NN1C(=O)c1nn(-c2ccc(Cl)cc2)cc1O` , target or system ACHN renal.
# output 79.3

# input Look up growth with ACHN renal for this compound: `Cc1cc(O)c2c(c1)C[C@H]1[C@@H]3CC[C@H]4CC(=O)CC[C@]4(C)[C@H]3CC(=O)[C@]21C`
# output 94.7

# input Give ACHN renal growth for `N#CCCCCCn1c2ccccc2c2c3c(c4c5ccccc5[nH]c4c21)C(=O)N(O)C3=O`
# output -81.6

# input GET /values?readout=growth&system=ACHN renal&item= `Cc1ccc(C=C2C(Cl)=C(Cl)C(Cl)=C2Cl)cc1`
# output -54.8
